Entries and their IC50 values follow.
molecular target: T1, human CD47 (hCD47) expressed on cells (human, UniProt Q08722 19-323); assay: flow cytometry, Raji cells, competition with hSIRPα
T1 construct: Transfected CHO cells or endogenous CD47 of human cells; also called CHO-hCD47; CD47 on Raji cells
Give your result in µg/mL as a bare value.

binder: hIgG4 chimeric candidate 22 (mouse VH/VL, human Fcγ4-S228P and human Kappa backbone) (antibody, V domains shown, hIgG4-S228P/kappa; also called Chim; 22) VH: QVQLQQPGAELVKPGASVKLSCKASGYTFTTYWMHWVKQRPGQGLEWIGMIHPNSGTTNYNEKFKSKATLTVDKSSSSTYMQLSSLTSEDSAVYYCTRSHYYDGHFSYWGQGTLVTVSA VL: DIVMSQSPSSLAVSAGEKVTMSCKSSQSLLNSRTRKNYLAWYQQKPGQSPKLLIYWASTRESGVPDRFTGSGSGTDFTLTISSVQAEDLAVYYCKQSYNLWTFGGGTRLEIKR
IC50, µg/mL: 0.14
//
binder: h22-VH3-VL4 (candidate 22.12) (antibody, human IgG4 S228P, kappa, V domains shown, hIgG4-S228P/kappa) VH: QVQLQESGAEVKKPGASVKVSCKASGYTFTTYWMHWVRQAPGQGLEWMGMIHPNSGTTNYNEKFKSRVTMTRDTSTSTVYMELSSLRSEDTAVYYCTRSHYYDGHFSYWGQGTLVTVSS VL: DIVMTQSPDSLPVSLGERATINCKSSQSLLNSRTRKNYLAWYQQKPGQPPKLLIYWASTRESGVPDRFTGSGSGTDFTLTISALQAEDVAVYYCKQSYNLWTFGQGTRLEIKR
IC50, µg/mL: 0.116
//
binder: h22-VH4-VL4 (candidate 22.16) (antibody, human IgG4 S228P, kappa, V domains shown, hIgG4-S228P/kappa) VH: QVQLVQSGAEVKKPGASVKVSCKGSGYTFTTYWMHWVRQAPGQGLEWMGMIHPNSGTTNYNEKFKSRVTLTRDTSISTAYMELSRLTSDDTAVYYCTRSHYYDGHFSYWGQGTMVTVSS VL: DIVMTQSPDSLPVSLGERATINCKSSQSLLNSRTRKNYLAWYQQKPGQPPKLLIYWASTRESGVPDRFTGSGSGTDFTLTISALQAEDVAVYYCKQSYNLWTFGQGTRLEIKR
IC50, µg/mL: 0.116

// query IC50 value for entry h22-VH4-VL3 (candidate 22.15) (antibody, human IgG4 S228P, kappa, V domains shown, hIgG4-S228P/kappa) VH: QVQLVQSGAEVKKPGASVKVSCKGSGYTFTTYWMHWVRQAPGQGLEWMGMIHPNSGTTNYNEKFKSRVTLTRDTSISTAYMELSRLTSDDTAVYYCTRSHYYDGHFSYWGQGTMVTVSS VL: EIVLTQSPDSLAVSLGERATINCKSSQSLLNSRTRKNYLAWYQQKAGQSPKLLIYWASTRESGVPDRFSGSGSGTDFTLTIDSLQAEDVAVYYCKQSYNLWTFGGGTKVEIKR 0.098
